Give measured Vd for each item. Keep answers brief.
Experiment: Pharmacokinetics in mice after IV and PO administrations
Format: in vivo, male BALB-c mice
Settings: male, BALB-c, mouse, plasma, 10 mg/kg IV, read-out: Vss
One number for each entry, in L/kg.

INSERT INTO results (molecule, measurementunits, measvalue) VALUES
  ('O=C1NCC=CCN1[C@@H]1O[C@H](CO)[C@@H](O)C1(F)F', 'L/kg', 1.64);

Next item in the queue.
Vd for O=C1NCC=CCN1[C@@H]1O[C@H](CO)[C@@H](O)[C@H]1O [ER-876400, reference compound] is 3.2

---

Assay: Pharmacokinetics in mice after IV and PO administrations
Assay type: in vivo, male BALB-c mice
Settings: male, BALB-c, mouse, plasma, 10 mg/kg IV, 4 hr, read-out: Plasma concentrations
Give concentration at 4 hr for every item shown.
Numbers only, in ng/mL.

INSERT INTO assay_data (molecule, measvalue) VALUES
  ('O=C1NCC=CCN1[C@@H]1O[C@H](CO)[C@@H](O)[C@H]1O [ER-876400, reference compound]', 495);

Field concentration at 4 hr (entry `O=C1NCC=CCN1[C@@H]1O[C@H](CO)[C@@H](O)C1(F)F` ) reads 214
